# test-description: chemical genetic growth profiling, strain panel (AID 1159580);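 further: tested at 20 µM; growth read once vehicle control cultures reached saturation at 30 °C; lower values mean less growth of the strain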
# test-context: S. cerevisiae deletion strains, growth OD, locus YML120C, strain ndi1
The campaign covered roughly 5,500 compounds. About 2,000 (36%) were called active. Another 18% or so got no clear call; they are omitted. No stated cut-off is given here; in the data, active means normalized growth mostly below about 0.91 (no sharp cut-off); inconclusive means no clear call, values can overlap the other calls; inactive means mostly above about 0.92. The list shows a part of the results.
Hello, when you answer, please use one of the following outcomes: TRUE for active, FALSE for inactive

Some solved entries appear below for comparison.
O=C1c2ccccc2C(=O)c2c(O)c(O)cc(O)c21 : TRUE
CC(C)(O)CC[C@@H](O)[C@](C)(O)C1CC[C@@]2(O)C3=CC(=O)C4C[C@@H](O)[C@@H](O)C[C@]4(C)C3CC[C@]12C (some centres undefined) : FALSE
CCOc1nc2cccc(C(=O)OC(C)OC(=O)OC3CCCCC3)c2n1Cc1ccc(-c2ccccc2-c2nn[nH]n2)cc1 (centres undefined) : FALSE
CC1(C)C=Cc2c(cc3occ(-c4ccc5c(c4)OCO5)c(=O)c3c2O)O1 : FALSE
CCNc1nc(Cl)nc(NC(C)C)n1 : FALSE
COc1cc(OC)c2c(=O)c(-c3ccc4c(c3)OCO4)coc2c1 : FALSE

Task item: Which outcome was entered for the compound Cn1c(=O)[nH]c(=O)c2[nH]cnc21 in this test?
Reply: FALSE

Task item: Which outcome was entered for the compound O=c1ccc2ccc(O)c(O)c2o1 in this test?
Reply: FALSE
